targetEntity: T1, Rpb1 (RNA polymerase II subunit carrying the C-terminal repeat domain) (S. cerevisiae, UniProt P04050 1-1733)
T1 construct: Rpb1, subunit of RNA polymerase II, S. cerevisiae, with its C-terminal repeat domain (CTD) of 26 heptapeptide repeats of consensus YSPTSPS; Stood in the assay as a subunit of Pol II within the PIC; CTD peptides 1, 2 and 3 are stretches of its CTD seen in the map (6, 3 and 2 repeats); their register within the CTD could not be assigned; also called Rpb1 CTD; Pol II CTD
T1 sequence (P04050 whole entry, the tested form may be a part): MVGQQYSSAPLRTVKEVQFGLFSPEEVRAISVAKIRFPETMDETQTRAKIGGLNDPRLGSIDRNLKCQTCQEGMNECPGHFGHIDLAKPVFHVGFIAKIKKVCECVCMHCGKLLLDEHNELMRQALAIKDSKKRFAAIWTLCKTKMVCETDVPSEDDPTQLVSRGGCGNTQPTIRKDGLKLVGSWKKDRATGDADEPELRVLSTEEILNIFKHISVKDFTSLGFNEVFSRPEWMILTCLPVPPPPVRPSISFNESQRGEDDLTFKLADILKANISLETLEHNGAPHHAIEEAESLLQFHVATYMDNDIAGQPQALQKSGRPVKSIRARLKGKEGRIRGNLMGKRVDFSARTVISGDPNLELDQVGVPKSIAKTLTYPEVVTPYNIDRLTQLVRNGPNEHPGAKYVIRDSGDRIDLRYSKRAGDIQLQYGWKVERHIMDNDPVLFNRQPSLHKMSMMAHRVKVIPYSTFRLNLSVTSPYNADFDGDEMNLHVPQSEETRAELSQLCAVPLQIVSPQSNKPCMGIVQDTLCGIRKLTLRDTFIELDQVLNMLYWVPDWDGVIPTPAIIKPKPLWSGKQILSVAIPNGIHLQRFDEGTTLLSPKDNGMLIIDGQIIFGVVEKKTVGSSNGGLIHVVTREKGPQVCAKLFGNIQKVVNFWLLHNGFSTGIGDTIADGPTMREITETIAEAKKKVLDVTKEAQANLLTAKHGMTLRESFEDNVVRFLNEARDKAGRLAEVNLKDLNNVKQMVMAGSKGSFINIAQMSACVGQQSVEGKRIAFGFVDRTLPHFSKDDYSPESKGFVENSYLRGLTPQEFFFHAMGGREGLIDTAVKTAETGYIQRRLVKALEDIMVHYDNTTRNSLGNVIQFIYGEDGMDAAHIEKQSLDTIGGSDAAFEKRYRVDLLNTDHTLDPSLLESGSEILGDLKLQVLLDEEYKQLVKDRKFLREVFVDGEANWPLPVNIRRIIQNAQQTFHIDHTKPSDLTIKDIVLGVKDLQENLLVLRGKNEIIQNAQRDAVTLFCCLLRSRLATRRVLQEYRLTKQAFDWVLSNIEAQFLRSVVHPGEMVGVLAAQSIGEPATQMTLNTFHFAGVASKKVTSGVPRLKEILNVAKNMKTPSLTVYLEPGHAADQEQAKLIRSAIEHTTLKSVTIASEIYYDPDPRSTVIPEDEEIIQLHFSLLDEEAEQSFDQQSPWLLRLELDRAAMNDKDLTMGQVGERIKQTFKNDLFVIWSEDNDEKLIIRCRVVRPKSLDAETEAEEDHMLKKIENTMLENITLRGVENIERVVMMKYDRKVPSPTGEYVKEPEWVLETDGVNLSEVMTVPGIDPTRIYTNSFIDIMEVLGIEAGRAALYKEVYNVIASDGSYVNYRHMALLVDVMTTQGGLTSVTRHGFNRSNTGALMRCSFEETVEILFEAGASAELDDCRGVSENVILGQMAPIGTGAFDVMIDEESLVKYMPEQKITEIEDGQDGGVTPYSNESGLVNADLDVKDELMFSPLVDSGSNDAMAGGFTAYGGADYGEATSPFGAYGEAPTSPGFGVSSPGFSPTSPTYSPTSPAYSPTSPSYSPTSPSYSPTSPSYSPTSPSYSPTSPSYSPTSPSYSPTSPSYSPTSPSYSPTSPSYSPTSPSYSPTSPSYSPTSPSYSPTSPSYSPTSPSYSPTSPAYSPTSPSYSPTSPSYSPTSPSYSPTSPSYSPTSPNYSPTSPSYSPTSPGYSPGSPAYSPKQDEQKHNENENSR
protocolDetails: cryo-EM structure; PIC-cMed-nucleosome complex assembled from the prepared factors on a His4 promoter / Widom-601 nucleosome template; GraFix sucrose gradient with glutaraldehyde cross-linking; 100 mM KCl, 25 mM K-HEPES pH 7.5, 2 mM MgCl2, 1 mM TCEP; reconstructions at 3.0 Å (PIC-cMed) and 3.6 Å (PIC-cMed-nucleosome), focused maps to 2.9-3.3 Å
conditionContext: both partners purified
quantity: binding result

1) Med7 (natural protein, S. cerevisiae, UniProt Q08278 1-222, looked up, Med7, Mediator middle module subunit, S. cerevisiae; Stood in the assay as a subunit of cMed) MSNDPGNEVSSLYPPPPPYVKFFTQSNLEKLPKYKEKKAASAKQTAPNNSNGGSEEEITCALDYLIPPPMPKNQQYRAFGSIWQVKDQLPDLESMGLTQLYKKSTENESTNYQYKIQELRKLLKSLLLNYLELIGVLSINPDMYERKVENIRTILVNIHHLLNEYRPHQSRESLIMLLEEQLEYKRGEIREIEQVCKQVHDKLTSIQDTLRTGSQSPPSSSQ: binds
2) Med4 (natural protein, S. cerevisiae, Med4, Mediator middle module subunit, S. cerevisiae; Stood in the assay as a subunit of cMed) MSVQDTKAVEFSMGHIRSSSVSLVAEATSNTNSEDKLSKVQLYEDLCRYEDTLSKLVESVDRFKPNLDIAKDLIRTDEALFENVKLLAEYDNIYRNLQKIDKDSEELDSKTRKILEILNECHDELKALPMLEQVEFEKNTILQQRSKINSTELLDYATKLSKFTKIPPTFDKGAVGPNNFIWPAEDALRRGMLAMASLHSKELTRIPGEEVEETEVPTVPPSQSEEQKGQMAKKEGTPKTDSFIFDGTAKEVGDEADNTKDKEKEENNDDALDLDLDLFDPDDF: binds
3) Med21 (natural protein, S. cerevisiae, Med21, Mediator subunit (hook domain), S. cerevisiae; Stood in the assay as a subunit of cMed) MTDRLTQLQICLDQMTEQFCATLNYIDKNHGFERLTVNEPQMSDKHATVVPPEEFSNTIDELSTDIILKTRQINKLIDSLPGVDVSAEEQLRKIDMLQKKLVEVEDEKIEAIKKKEKLLRHVDSLIEDFVDGIANSKKST: binds
